Test system: Ramos
test-description: AlamarBlue viability assay
Type: cell-based, human
study-conditions: cytotoxicity, 24 h, as given in text; read-out: IC50 (Ramos)
pIC50: −log10 of the molar value.
measurement-label: pIC50

Give the reported value of pIC50 for this record: COc1ccnc2[nH]cc(-c3cc(N)nc(N)c3)c12 [meriolin 16]
7.52 to 7.70

====

System: CLL68 chronic lymphocytic leukemia cells
study-conditions: read-out: IC50 (CLL68); primary patient cells, 24 h
# pIC50 per entry
API: returns pIC50 as number; meaning -log10 of concentration in mol/L.

c1ccc(CNc2cc(-c3c[nH]c4ncccc34)ccn2)cc1 [meriolin 36]: 6.38

As a next step, examine the compound that follows.
Give the reported value of pIC50 for this record: COc1ccnc2[nH]cc(-c3cc(N)nc(N)c3)c12 [meriolin 16]
7.22

====

# pIC50 per entry
System: SUPB15
study-conditions: read-out: IC50 (SUPB15); cytotoxicity, 24 h
API: returns pIC50 as number; meaning -log10 of concentration in mol/L.

Give the reported value of pIC50 for this record: COc1ccnc2[nH]cc(-c3cc(N)nc(N)c3)c12 [meriolin 16]
7.70

Give the reported value of pIC50 for this record: c1ccc(CNc2cc(-c3c[nH]c4ncccc34)ccn2)cc1 [meriolin 36]
5.78

====

# IC50 per entry
Tested on: FL303 follicular lymphoma cells
study-conditions: read-out: IC50 (FL303); primary patient cells, 24 h

COc1ccnc2[nH]cc(-c3cc(N)nc(N)c3)c12: 60 nM

Give the reported value of IC50 for this record: `c1ccc(CNc2cc(-c3c[nH]c4ncccc34)ccn2)cc1`
170 nM

====

# IC50 per entry
Tested on: HPBALL
study-conditions: read-out: IC50 (HPBALL); cytotoxicity, 24 h
Write it as a number; the unit nM goes unstated.

COc1ccnc2[nH]cc(-c3cc(N)nc(N)c3)c12 [meriolin 16]: 20

Give the reported value of IC50 for this record: c1ccc(CNc2cc(-c3c[nH]c4ncccc34)ccn2)cc1 [meriolin 36]
3440

====

Test system: HL60
study-conditions: read-out: IC50 (HL60); cytotoxicity, 24 h
# pIC50 per entry
API: returns pIC50 as number; meaning -log10 of concentration in mol/L.

c1ccc(CNc2cc(-c3c[nH]c4ncccc34)ccn2)cc1: 5.91

Give the reported value of pIC50 for this record: `COc1ccnc2[nH]cc(-c3cc(N)nc(N)c3)c12`
8.00
